Exercise: for every item that follows, state its recorded Fbg.
Species on record: Rattus norvegicus
protocol-notes: Open TG-GATES - Regimen: Single
Format: toxicity, organism-based, Sprague-Dawley
Design: regimen Single, gender Male, age 6 weeks
measurement-conditions: in vivo, po, 300 mg/kg, 3 h, tissue Blood, route gavage, dose level Middle
Give bare numbers, in mg/dL.

>  <record-smiles>
O=C(OC[C@H]1O[C@@H](OC(=O)c2cc(O)c(O)c(OC(=O)c3cc(O)c(O)c(O)c3)c2)[C@H](OC(=O)c2cc(O)c(O)c(OC(=O)c3cc(O)c(O)c(O)c3)c2)[C@@H](OC(=O)c2cc(O)c(O)c(OC(=O)c3cc(O)c(O)c(O)c3)c2)[C@@H]1OC(=O)c1cc(O)c(O)c(OC(=O)c2cc(O)c(O)c(O)c2)c1)c1cc(O)c(O)c(OC(=O)c2cc(O)c(O)c(O)c2)c1

>  <measure-unit>
mg/dL

>  <Fbg>
212

$$$$

Batch of 2 compounds: report Fbg for each.
1. CNC(=C[N+](=O)[O-])NCCSCc1ccc(CN(C)C)o1
2. COC(=O)C1=C(C)NC(C)=C(C(=O)OC)C1c1ccccc1[N+](=O)[O-]

1. 224
2. 299.2

Please supply Fbg for each of the following items, keeping them in order.
1. CN/C(=N/CCSCc1nc[nH]c1C)NC#N
2. Cc1nnc2n1-c1ccc(Cl)cc1C(c1ccccc1Cl)=NC2

[212, 270.4]

====

Organism: Rattus norvegicus
protocol-notes: Open TG-GATES - Regimen: Daily Repeat
Type: toxicity, organism-based, Sprague-Dawley
Set-up: regimen Daily Repeat, gender Male, age 6 weeks
measurement-conditions: in vivo, po, 300 mg/kg, […], tissue Plasma, route gavage, dose level Middle, time 7 day
quantity-measured: K (meq/L)
Numbers only, in meq/L.

>  <record-smiles>
CN/C(=N/CCSCc1nc[nH]c1C)NC#N

>  <K, meq/L>
3.8

$$$$
>  <record-smiles>
CCOc1ccc(NC(C)=O)cc1

>  <K, meq/L>
4.3

$$$$
>  <record-smiles>
COC(=O)C1=C(C)NC(C)=C(C(=O)OC)C1c1ccccc1[N+](=O)[O-]

>  <K, meq/L>
3.9

$$$$
>  <record-smiles>
O=C(OC[C@H]1O[C@@H](OC(=O)c2cc(O)c(O)c(OC(=O)c3cc(O)c(O)c(O)c3)c2)[C@H](OC(=O)c2cc(O)c(O)c(OC(=O)c3cc(O)c(O)c(O)c3)c2)[C@@H](OC(=O)c2cc(O)c(O)c(OC(=O)c3cc(O)c(O)c(O)c3)c2)[C@@H]1OC(=O)c1cc(O)c(O)c(OC(=O)c2cc(O)c(O)c(O)c2)c1)c1cc(O)c(O)c(OC(=O)c2cc(O)c(O)c(O)c2)c1

>  <K, meq/L>
4.5

$$$$
>  <record-smiles>
CNC(=C[N+](=O)[O-])NCCSCc1ccc(CN(C)C)o1

>  <K, meq/L>
3.8

$$$$

In the following, a different compound is considered.
Consider the compound Cc1nnc2n1-c1ccc(Cl)cc1C(c1ccccc1Cl)=NC2 and give its recorded K.
4.2

====

Species on record: Rattus norvegicus
protocol-notes: Open TG-GATES - Regimen: Daily Repeat
Assay type: toxicity, organism-based, Sprague-Dawley
Set-up: regimen Daily Repeat, gender Male, age 6 weeks
measurement-conditions: in vivo, po, 1000 mg/kg, 72 h, tissue Plasma, route gavage, dose level High, time 3 day
Could you please report measured LDH for the items listed next?

Solved entries:
>  <compound>
CN/C(=N/CCSCc1nc[nH]c1C)NC#N [CIMETIDINE]

>  <LDH>
190.8 IU/L

$$$$
>  <compound>
O=C(OC[C@H]1O[C@@H](OC(=O)c2cc(O)c(O)c(OC(=O)c3cc(O)c(O)c(O)c3)c2)[C@H](OC(=O)c2cc(O)c(O)c(OC(=O)c3cc(O)c(O)c(O)c3)c2)[C@@H](OC(=O)c2cc(O)c(O)c(OC(=O)c3cc(O)c(O)c(O)c3)c2)[C@@H]1OC(=O)c1cc(O)c(O)c(OC(=O)c2cc(O)c(O)c(O)c2)c1)c1cc(O)c(O)c(OC(=O)c2cc(O)c(O)c(O)c2)c1 [TANNIC ACID]

>  <LDH>
81.6 IU/L

$$$$
>  <compound>
CCOc1ccc(NC(C)=O)cc1 [PHENACETIN]

>  <LDH>
77.6 IU/L

$$$$
>  <compound>
Cc1nnc2n1-c1ccc(Cl)cc1C(c1ccccc1Cl)=NC2 [TRIAZOLAM]

>  <LDH>
98.4 IU/L

$$$$
>  <compound>
CNC(=C[N+](=O)[O-])NCCSCc1ccc(CN(C)C)o1 [RANITIDINE]

>  <LDH>
216.6 IU/L

$$$$

For the compound COC(=O)C1=C(C)NC(C)=C(C(=O)OC)C1c1ccccc1[N+](=O)[O-] [NIFEDIPINE] , give its reported LDH.
69.6 IU/L

====

Organism: Rattus norvegicus
protocol-notes: Open TG-GATES - Regimen: Daily Repeat
Type: toxicity, organism-based, Sprague-Dawley
Set-up: regimen Daily Repeat, gender Male, age 6 weeks
measurement-conditions: in vivo, po, 300 mg/kg, […], tissue Blood, route gavage, dose level Middle, time 7 day
quantity-measured: Ht (%)
One number for each entry, in %.

Provide Ht for all items below, preserving their order.
1. CN/C(=N/CCSCc1nc[nH]c1C)NC#N
2. CCOc1ccc(NC(C)=O)cc1

1. 40.9
2. 40.1

Give one value of Ht per listed compound.
1. Cc1nnc2n1-c1ccc(Cl)cc1C(c1ccccc1Cl)=NC2
2. O=C(OC[C@H]1O[C@@H](OC(=O)c2cc(O)c(O)c(OC(=O)c3cc(O)c(O)c(O)c3)c2)[C@H](OC(=O)c2cc(O)c(O)c(OC(=O)c3cc(O)c(O)c(O)c3)c2)[C@@H](OC(=O)c2cc(O)c(O)c(OC(=O)c3cc(O)c(O)c(O)c3)c2)[C@@H]1OC(=O)c1cc(O)c(O)c(OC(=O)c2cc(O)c(O)c(O)c2)c1)c1cc(O)c(O)c(OC(=O)c2cc(O)c(O)c(O)c2)c1
3. COC(=O)C1=C(C)NC(C)=C(C(=O)OC)C1c1ccccc1[N+](=O)[O-]
4. CNC(=C[N+](=O)[O-])NCCSCc1ccc(CN(C)C)o1

1: 40.5; 2: 40.6; 3: 42.7; 4: 39.9

====

Hi there, I'd appreciate the recorded TG for every entry that follows.
Organism: Rattus norvegicus
protocol-notes: Open TG-GATES - Regimen: Single
Format: toxicity, organism-based, Sprague-Dawley
Set-up: regimen Single, gender Male, age 6 weeks
measurement-conditions: in vivo, po, 1000 mg/kg, 6 h, tissue Plasma, route gavage, dose level High
Give bare numbers, in mg/dL.

Please review the following examples before continuing.
>  <record-smiles>
O=C(OC[C@H]1O[C@@H](OC(=O)c2cc(O)c(O)c(OC(=O)c3cc(O)c(O)c(O)c3)c2)[C@H](OC(=O)c2cc(O)c(O)c(OC(=O)c3cc(O)c(O)c(O)c3)c2)[C@@H](OC(=O)c2cc(O)c(O)c(OC(=O)c3cc(O)c(O)c(O)c3)c2)[C@@H]1OC(=O)c1cc(O)c(O)c(OC(=O)c2cc(O)c(O)c(O)c2)c1)c1cc(O)c(O)c(OC(=O)c2cc(O)c(O)c(O)c2)c1

>  <measure-unit>
mg/dL

>  <TG>
22.2

$$$$
>  <record-smiles>
COC(=O)C1=C(C)NC(C)=C(C(=O)OC)C1c1ccccc1[N+](=O)[O-]

>  <measure-unit>
mg/dL

>  <TG>
16.4

$$$$
>  <record-smiles>
Cc1nnc2n1-c1ccc(Cl)cc1C(c1ccccc1Cl)=NC2

>  <measure-unit>
mg/dL

>  <TG>
68.2

$$$$
>  <record-smiles>
CN/C(=N/CCSCc1nc[nH]c1C)NC#N

>  <measure-unit>
mg/dL

>  <TG>
83.2

$$$$

Give reported TG value for CNC(=C[N+](=O)[O-])NCCSCc1ccc(CN(C)C)o1
47.8

====

Organism: Rattus norvegicus
protocol-notes: Open TG-GATES - Regimen: Single
Format: toxicity, organism-based, Sprague-Dawley
Parameters: regimen Single, gender Male, age 6 weeks
measurement-conditions: in vivo, po, 1000 mg/kg, 6 h, tissue Blood, route gavage, dose level High
Assignment: determine reported RBC for the given compounds.
One number for each entry, in x10_4/ul.

Guide cases for RBC, answers given:
>  <record-smiles>
Cc1nnc2n1-c1ccc(Cl)cc1C(c1ccccc1Cl)=NC2

>  <RBC (x10_4/ul)>
674

$$$$
>  <record-smiles>
CN/C(=N/CCSCc1nc[nH]c1C)NC#N

>  <RBC (x10_4/ul)>
607.4

$$$$
>  <record-smiles>
COC(=O)C1=C(C)NC(C)=C(C(=O)OC)C1c1ccccc1[N+](=O)[O-]

>  <RBC (x10_4/ul)>
632.4

$$$$

For every item in the list below, what is its measured RBC?
1. O=C(OC[C@H]1O[C@@H](OC(=O)c2cc(O)c(O)c(OC(=O)c3cc(O)c(O)c(O)c3)c2)[C@H](OC(=O)c2cc(O)c(O)c(OC(=O)c3cc(O)c(O)c(O)c3)c2)[C@@H](OC(=O)c2cc(O)c(O)c(OC(=O)c3cc(O)c(O)c(O)c3)c2)[C@@H]1OC(=O)c1cc(O)c(O)c(OC(=O)c2cc(O)c(O)c(O)c2)c1)c1cc(O)c(O)c(OC(=O)c2cc(O)c(O)c(O)c2)c1
2. CNC(=C[N+](=O)[O-])NCCSCc1ccc(CN(C)C)o1

[613.8, 613.8]
